Test system: EKVX NSCLC
Experiment: NCI-60 one-dose screen, 48 h
Settings: 10 µM unless noted
Compounds without any hit were thinned out: in the full panel of roughly 83,000, 20% have a hit. The source made the active and inactive calls. Rule for the calls: active = growth percent below 10; inactive = the rest.
Your response should consist of one outcome taken from YES (active), NO (inactive)

- compound: "Cc1[nH]c(-c2ccc3cc[nH]c3c2)c2c1C(=O)CCCC2"
  assay target: "EKVX NSCLC"
  answer label: "NO"
- compound: "CCN1CCN(c2nc(NCCCNc3ccnc4cc(Cl)ccc34)c3ccccc3n2)CC1"
  assay target: "EKVX NSCLC"
  answer label: "NO"
- compound: "CCCCCCN(CCCCCC)CCC(O)c1ccc2ccccc2c1 (stereo unspecified)"
  assay target: "EKVX NSCLC"
  answer label: "NO"
- compound: "COc1ccc(/C=C/C(=O)c2cc(O)ccc2O)cc1"
  assay target: "EKVX NSCLC"
  answer label: "NO"
- compound: "O=c1cc(CSc2nnc(SCc3cc(=O)oc4c3ccc3ccccc34)o2)c2ccc3ccccc3c2o1"
  assay target: "EKVX NSCLC"
  answer label: "NO"

In: Outcome? Cc1ccc2c(C(C[N+](=O)[O-])c3ccccc3)c(-c3ccccc3)[nH]c2c1 (stereo unspecified)
Out: NO

In: Outcome? Nc1ccn(-c2ccc(Br)cc2)c(=O)n1
Out: NO

In: Outcome? COc1ccc(O)c(N=Nc2nccs2)c1
Out: NO

In: Outcome? CCCCn1c(-c2ccc(C(=O)O/N=C(\N)c3ccc4ccccc4c3)cc2)nc(-c2ccccc2)c1-c1ccccc1
Out: NO

In: Outcome? CN(C)c1ccc(N=Nc2ccccn2)c(O)c1
Out: NO

In: Outcome? CCCCC/C(C=C(C#N)C#N)=C/c1ccccc1
Out: NO

In: Outcome? COc1ccc(NC2=C(Sc3nc(C)cc(C)n3)C(=O)N(Cc3ccccc3)C2=O)cc1Cl
Out: NO

In: Outcome? N#C/C(=C\c1ccc(-c2cc(C(F)(F)F)ccc2Cl)o1)c1nc(-c2ccco2)cs1
Out: NO

In: Outcome? N#Cc1c(-c2ccc(Cl)cc2)nc(NN=Cc2ccco2)nc1N1CCOCC1
Out: NO

In: Outcome? O=C1c2cc3c(cc2-c2c1c1ccc(F)cc1c(=O)n2C[C@H](O)[C@H](O)[C@H](O)CO)OCO3
Out: YES
